Ref: patent US20110136733A1

# TARGET UNDER TEST: T1, human recombinant GIP receptor (human, UniProt P48546 22-466)
# T1 construct: whole, on cells; Membranes of CHO-K1 cells expressing the receptor; also called hGIP receptor
# T1 sequence (looked up): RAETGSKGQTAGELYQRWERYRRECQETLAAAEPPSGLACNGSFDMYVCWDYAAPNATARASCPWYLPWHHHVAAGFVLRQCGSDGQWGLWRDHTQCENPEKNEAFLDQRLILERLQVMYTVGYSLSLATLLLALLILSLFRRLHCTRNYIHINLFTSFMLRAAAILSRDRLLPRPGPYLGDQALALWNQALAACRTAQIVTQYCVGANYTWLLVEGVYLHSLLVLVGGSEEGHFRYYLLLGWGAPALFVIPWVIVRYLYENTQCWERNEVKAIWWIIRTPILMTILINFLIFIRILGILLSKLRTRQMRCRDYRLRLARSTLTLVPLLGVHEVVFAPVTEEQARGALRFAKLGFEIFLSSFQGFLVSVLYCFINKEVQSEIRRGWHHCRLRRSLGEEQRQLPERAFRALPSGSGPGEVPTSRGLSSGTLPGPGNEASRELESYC
# ASSAY REMARKS: [125I]GIP competition, membranes of CHO-K1 cells expressing human GIP receptor
Where no end group is shown, it is not given here. [ ]: non-standard residue; d: D form. The star is where a group is joined. Psu = N-propylsuccinimide on the Cys sulfur (from N-propylmaleimide), CCCN1C(=O)CC(*)C1=O; Ac6c = NC1(C(=O)O)CCCCC1; Aib = CC(C)(N)C(=O)O
One threshold, 0.3 nM, splits the recorded Ki values: lower ones are yes, equal or higher ones are no.

Consider the worked cases shown below.
XXEGTFISDYXIAXDKIHQQDFVNWLLAQKGKKNDWKHNITQ (NMe-Tyr at 1; Aib at 2; A5c at 11; Nle at 14; C-terminal free acid) [(NMe-Tyr^1, Aib^2, A5c^11, Nle^14)hGIP(1-42)-OH]    yes
YXEGTFXSDYSIAXDKIHQQDFVNWLXAQKGKKNDWKHNITQ (Aib at 2; A6c at 7 and 27; Nle at 14; C-terminal free acid) [(Aib^2, A6c^7, 27, Nle^14)hGIP(1-42)-OH]    no
Y[Aib]EGTF[Ac6c]SDYSIAMDKIHQQDFVNWLLAQKGKKNDWKHC(Psu)ITQ-OH [[Aib^2, A6c^7, Cys(Psu)^39]hGIP(1-42)-OH]    no
YXEGTFISDYXIAXDKIHQQDFVNWLLAQK (Aib at 2 and 11; Nle at 14; C-terminal amide) [(Aib^2, 11, Nle^14)hGIP(1-30)-NH2]    no

Okay, next one:
Task item: In the record for YXEGTFISDYXIAXDKIHQQDFVNWLLAQK (Aib at 2; A5c at 11; A6c at 14; C-terminal amide) [(Aib^2, A5c^11, A6c^14)hGIP(1-30)-NH2] , is Ki less than 0.3 nM?
Reply: yes
